Cited source for all entries: ChEMBL document CHEMBL5365467

Run description: Metabolic stability in mouse plasma assessed as parent compound remaining measured after 120 mins by LC-MS/MS analysis
Type: ADME, cell-free
Assay setup: read-out: Stability
Endpoint name: remaining at 2 h (%)
Numbers only, in %.

Report remaining at 2 h, nothing else, for this compound: C[C@H]1CC2(CCN(c3ccc(C(=O)N4CCC(CN5Cc6cc7c(cc6C5)C(=O)N(C5CCC(=O)NC5=O)C7=O)CC4)cc3)CC2)CN1c1ccc(C#N)c(Cl)c1 (stereo partly specified) 62

---

Run description: Half life in Sprague-Dawley rat at 2 mg/kg, iv measured upto 24 hrs by LC-MS/MS analysis
Assay setup: in vivo
Endpoint name: half-life at 24 h (h)
Answers are plain numbers, in h.

# Compound, Endpoint name, Observed result
records = [
    ("C[C@H]1CC2(CCN(c3ccc(C(=O)N4CCC(F)(CN5Cc6cc7c(cc6C5)C(=O)N(C5CCC(=O)NC5=O)C7=O)CC4)cc3)CC2)CN1c1ccc(C#N)c(Cl)c1 (some centres not stated)", "half-life at 24 h", 7.9),
    ("C[C@H]1CC2(CCN(c3ccc(C(=O)N4CCC(CN5Cc6cc7c(cc6C5)C(=O)N(C5CCC(=O)NC5=O)C7=O)CC4)cc3)CC2)CN1c1ccc(C#N)c(Cl)c1 (some centres not stated)", "half-life at 24 h", 4.5),
    ("C[C@H]1CC2(CCN(c3ccc(C(=O)N4CC(CN5Cc6cc7c(cc6C5)C(=O)N(C5CCC(=O)NC5=O)C7=O)C4)cc3)CC2)CN1c1ccc(C#N)c(Cl)c1 (some centres not stated)", "half-life at 24 h", 1.4),
    ("C[C@H]1CC2(CCN(c3ccc(C(=O)N4CCC(N5Cc6cc7c(cc6C5)C(=O)N(C5CCC(=O)NC5=O)C7=O)CC4)cc3)CC2)CN1c1ccc(C#N)c(Cl)c1 (some centres not stated)", "half-life at 24 h", 5.5),
    ("COC1(CN2Cc3cc4c(cc3C2)C(=O)N(C2CCC(=O)NC2=O)C4=O)CCN(C(=O)c2ccc(N3CCC4(CC3)C[C@H](C)N(c3ccc(C#N)c(Cl)c3)C4)cc2)CC1 (some centres not stated)", "half-life at 24 h", 4.9),
    ("C[C@H]1CC2(CCN(c3ccc(C(=O)N4CCC(C)(CN5Cc6cc7c(cc6C5)C(=O)N(C5CCC(=O)NC5=O)C7=O)CC4)cc3)CC2)CN1c1ccc(C#N)c(Cl)c1 (some centres not stated)", "half-life at 24 h", 6.1),
]

Next, consider the following compound.
Report half-life at 24 h, nothing else, for this compound: C[C@H]1CC2(CCN(c3ccc(C(=O)N4CC(N5Cc6cc7c(cc6C5)C(=O)N(C5CCC(=O)NC5=O)C7=O)C4)cc3)CC2)CN1c1ccc(C#N)c(Cl)c1 (some centres not stated) 3.2

---

Field: log10(DC50). Provide a value for each of the compounds that follow.
Assayed target: Protein cereblon/Androgen receptor (Homo sapiens, UniProt P10275+Q96SW2)
Sequence (P10275 whole entry): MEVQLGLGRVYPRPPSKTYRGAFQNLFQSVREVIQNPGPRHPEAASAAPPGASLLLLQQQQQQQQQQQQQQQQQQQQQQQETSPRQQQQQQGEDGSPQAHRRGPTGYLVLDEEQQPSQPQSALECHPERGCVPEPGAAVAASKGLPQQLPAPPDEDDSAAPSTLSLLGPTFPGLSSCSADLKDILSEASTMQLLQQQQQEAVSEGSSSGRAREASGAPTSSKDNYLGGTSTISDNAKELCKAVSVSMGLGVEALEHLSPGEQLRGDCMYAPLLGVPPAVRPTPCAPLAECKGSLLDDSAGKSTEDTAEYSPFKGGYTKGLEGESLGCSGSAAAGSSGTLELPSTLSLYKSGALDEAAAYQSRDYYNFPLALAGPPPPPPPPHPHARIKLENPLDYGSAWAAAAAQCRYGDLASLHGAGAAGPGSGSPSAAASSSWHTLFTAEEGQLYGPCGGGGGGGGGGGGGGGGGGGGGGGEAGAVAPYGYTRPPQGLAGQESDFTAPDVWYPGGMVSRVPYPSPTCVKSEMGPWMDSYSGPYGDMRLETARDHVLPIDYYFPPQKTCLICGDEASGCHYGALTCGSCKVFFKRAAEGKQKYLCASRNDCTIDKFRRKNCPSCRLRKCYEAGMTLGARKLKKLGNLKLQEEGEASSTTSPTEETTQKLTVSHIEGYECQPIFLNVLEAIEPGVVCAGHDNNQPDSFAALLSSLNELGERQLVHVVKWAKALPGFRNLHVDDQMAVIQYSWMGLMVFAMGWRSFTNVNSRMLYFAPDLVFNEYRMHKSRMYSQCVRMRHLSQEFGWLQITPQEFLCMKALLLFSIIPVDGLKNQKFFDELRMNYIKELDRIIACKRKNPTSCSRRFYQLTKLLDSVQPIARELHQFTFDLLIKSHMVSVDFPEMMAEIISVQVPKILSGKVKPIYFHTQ
Sequence (Q96SW2 whole entry): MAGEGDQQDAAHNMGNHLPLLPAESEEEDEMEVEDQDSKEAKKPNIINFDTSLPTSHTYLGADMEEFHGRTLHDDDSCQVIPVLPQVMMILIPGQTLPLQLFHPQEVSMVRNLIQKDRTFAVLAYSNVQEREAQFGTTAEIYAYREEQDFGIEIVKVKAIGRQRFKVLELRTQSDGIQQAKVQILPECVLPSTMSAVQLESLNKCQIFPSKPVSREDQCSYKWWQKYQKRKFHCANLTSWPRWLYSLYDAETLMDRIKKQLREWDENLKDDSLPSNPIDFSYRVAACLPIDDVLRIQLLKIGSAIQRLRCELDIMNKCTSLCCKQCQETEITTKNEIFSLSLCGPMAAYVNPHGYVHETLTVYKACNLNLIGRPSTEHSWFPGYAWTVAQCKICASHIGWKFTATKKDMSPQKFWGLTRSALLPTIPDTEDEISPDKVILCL
Run description: PROTAC activity at AR/CRBN in AR-positive human VCaP cells assessed as induction of androgen receptor degradation measured at 24 hrs
Assay type: cell-based
Assay setup: read-out: DC50
Log10 applied to DC50; unit prior to transform: nM.

Provide each entry's log10(DC50) from the list below.
1. C[C@H]1CC2(CCN(c3ccc(C(=O)N4CCC(CN5Cc6cc7c(cc6C5)C(=O)N(C5CCC(=O)NC5=O)C7=O)CC4)cn3)CC2)CN1c1ccc(C#N)c(Cl)c1 (stereo not given in full)
2. C[C@H]1CC2(CCN(c3ccc(C(=O)N4CCC(CN5Cc6cc7c(cc6C5)C(=O)N(C5CCC(=O)NC5=O)C7=O)CC4)nn3)CC2)CN1c1ccc(C#N)c(Cl)c1 (stereo not given in full)
3. C[C@H]1CC2(CCN(c3ccc(C(=O)N4CCC(CN5Cc6cc7c(cc6C5)C(=O)N(C5CCC(=O)NC5=O)C7=O)CC4)nc3)CC2)CN1c1ccc(C#N)c(Cl)c1 (stereo not given in full)
4. C[C@H]1CC2(CCN(c3ccc(C(=O)N4CCC(F)(CN5Cc6cc7c(cc6C5)C(=O)N(C5CCC(=O)NC5=O)C7=O)CC4)cc3)CC2)CN1c1ccc(C#N)c(Cl)c1 (stereo not given in full)
5. N#Cc1ccc(N2CCC3(CCN(c4ccc(C(=O)N5CCC(N6CCc7cc8c(cc7C6)C(=O)N(C6CCC(=O)NC6=O)C8=O)CC5)cc4)CC3)C2)cc1Cl (stereo not given)
6. C[C@H]1CC2(CCN(c3ccc(C(=O)N4CCC(C)(CN5Cc6cc7c(cc6C5)C(=O)N(C5CCC(=O)NC5=O)C7=O)CC4)cc3)CC2)CN1c1ccc(C#N)c(Cl)c1 (stereo not given in full)

1: 0.36; 2: 0.43; 3: 1.19; 4: -0.05; 5: 1.86; 6: 0.58

---

Run description: Metabolic stability in human liver microsome assessed as parent compound remaining measured at 120 mins in presence of NADPH by LC-MS/MS analysis
Format: ADME
Assay setup: liver microsomes, read-out: Stability
Endpoint name: remaining at 2 h
Answer as a quantity: numeral, then unit.

Report remaining at 2 h, nothing else, for this compound: C[C@H]1CC2(CCN(c3ccc(C(=O)N4CCC(CN5Cc6cc7c(cc6C5)C(=O)N(C5CCC(=O)NC5=O)C7=O)CC4)cc3)CC2)CN1c1ccc(C#N)c(Cl)c1 (stereo partly specified) 84%

---

Run description: Half life in ICR mouse at 2 mg/kg, iv measured upto 24 hrs by LC-MS/MS analysis
Format: ADME, organism-based
Assay setup: in vivo
Endpoint name: half-life (h)
Numbers only, in h.

Report half-life, nothing else, for this molecule: C[C@H]1CC2(CCN(c3ccc(C(=O)N4CCC(CN5Cc6cc7c(cc6C5)C(=O)N(C5CCC(=O)NC5=O)C7=O)CC4)cc3)CC2)CN1c1ccc(C#N)c(Cl)c1 (stereo partly specified) 4.3

---

Run description: Metabolic stability in mouse liver microsome assessed as parent compound remaining measured at 120 mins in presence of NADPH by LC-MS/MS analysis
Type: ADME
Assay setup: liver microsomes, read-out: Stability
Endpoint name: remaining at 2 h (%)
Numbers only, in %.

Report remaining at 2 h, nothing else, for this molecule: C[C@H]1CC2(CCN(c3ccc(C(=O)N4CCC(CN5Cc6cc7c(cc6C5)C(=O)N(C5CCC(=O)NC5=O)C7=O)CC4)cc3)CC2)CN1c1ccc(C#N)c(Cl)c1 (stereo partly specified) 82

---

Field: DC50. Provide a value for each of the molecules that follow.
Assayed target: Protein cereblon/Androgen receptor (Homo sapiens, UniProt P10275+Q96SW2)
Run description: PROTAC activity at AR/CRBN in AR-positive human VCaP cells assessed as induction of androgen receptor degradation measured at 24 hrs
Format: cell-based
Assay setup: read-out: DC50
Answers are plain numbers, in nM.

Example results:
# Molecule, DC50, nM
rows = [
    ("C[C@H]1CC2(CCN(c3ccc(C(=O)N4CCC(O)(CN5Cc6cc7c(cc6C5)C(=O)N(C5CCC(=O)NC5=O)C7=O)CC4)cc3)CC2)CN1c1ccc(C#N)c(Cl)c1 (some centres undefined)", 290),
    ("N#Cc1ccc(N2CCC3(CCN(c4ccc(C(=O)N5CCC(CCN6CCc7cc8c(cc7CC6)C(=O)N(C6CCC(=O)NC6=O)C8=O)CC5)cc4)CC3)C2)cc1Cl (centres undefined)", 3000),
]

Provide each entry's DC50 from the list below.
1. COC1(CN2Cc3cc4c(cc3C2)C(=O)N(C2CCC(=O)NC2=O)C4=O)CCN(C(=O)c2ccc(N3CCC4(CC3)C[C@H](C)N(c3ccc(C#N)c(Cl)c3)C4)cc2)CC1 (some centres undefined)
2. C[C@H]1CC2(CCN(c3ccc(C(=O)N4CCC(CN5Cc6cc7c(cc6C5)C(=O)N(C5CCC(=O)NC5=O)C7=O)CC4)cc3)CC2)CN1c1ccc(C#N)c(Cl)c1 (some centres undefined)

1: 0.3; 2: 0.1
